Molecular target: human TLR7 (Homo sapiens)
Sequence (Q9NYK1 27-1049): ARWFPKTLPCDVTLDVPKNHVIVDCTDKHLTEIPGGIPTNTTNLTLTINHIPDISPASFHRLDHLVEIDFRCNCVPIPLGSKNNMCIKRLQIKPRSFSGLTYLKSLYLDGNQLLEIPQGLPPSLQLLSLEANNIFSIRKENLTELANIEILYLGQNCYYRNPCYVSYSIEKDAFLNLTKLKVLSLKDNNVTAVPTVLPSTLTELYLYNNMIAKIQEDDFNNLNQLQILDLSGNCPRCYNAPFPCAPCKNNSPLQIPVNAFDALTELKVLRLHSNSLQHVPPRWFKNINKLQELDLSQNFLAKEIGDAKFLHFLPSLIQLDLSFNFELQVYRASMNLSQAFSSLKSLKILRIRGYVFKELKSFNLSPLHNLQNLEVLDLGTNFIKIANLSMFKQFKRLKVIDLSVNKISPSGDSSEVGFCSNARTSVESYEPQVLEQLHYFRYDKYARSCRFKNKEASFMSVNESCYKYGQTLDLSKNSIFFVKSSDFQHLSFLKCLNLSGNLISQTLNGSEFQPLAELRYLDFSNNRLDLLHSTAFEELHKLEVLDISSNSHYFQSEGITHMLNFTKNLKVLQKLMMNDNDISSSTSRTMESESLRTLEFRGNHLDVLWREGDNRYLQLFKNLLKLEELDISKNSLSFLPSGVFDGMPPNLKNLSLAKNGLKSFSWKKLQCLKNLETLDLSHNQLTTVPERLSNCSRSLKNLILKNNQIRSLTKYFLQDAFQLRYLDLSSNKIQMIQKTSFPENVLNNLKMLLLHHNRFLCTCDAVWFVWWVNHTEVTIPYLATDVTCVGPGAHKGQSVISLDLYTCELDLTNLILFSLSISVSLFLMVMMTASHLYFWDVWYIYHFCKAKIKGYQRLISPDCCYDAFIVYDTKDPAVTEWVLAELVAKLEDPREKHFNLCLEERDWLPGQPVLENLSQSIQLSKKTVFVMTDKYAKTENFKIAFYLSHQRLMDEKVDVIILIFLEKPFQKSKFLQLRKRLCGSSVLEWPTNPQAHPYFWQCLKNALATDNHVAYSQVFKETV
Experiment: TLR7 inhibition reporter assay (HEK-Blue SEAP)
Settings: HEK-Blue cells overexpressing human TLR7, gardiquimod 7.5 μM, 22 hour incubation
pIC50: −log10 of the molar value.
reportedEndpoint: pIC50

- molecule: "Cc1c(-c2cc3[nH]c(=O)n([C@H]4CC[C@@H](NC5COC5)CC4)c3cc2C(C)C)cn2ncnc2c1C"
  pIC50: 8.15

P = COc1cc(-c2cc3[nH]c(=O)n([C@H]4CCCN(C5CCC5)C4)c3cc2C(C)C)cn2ncnc12
Q = COc1cc(-c2cc3[nH]c(=O)n(C4CCC(N5CC6(C5)CS(=O)(=O)C6)CC4)c3cc2C(C)C)cn2ncnc12 (single isomer, unassigned) [Example 245]
Could you determine which record has the numerically smaller pIC50? Candidates: P and Q Respond using the label that marks the chosen record. P

---

Molecular target: UniProt Q9NR97
Sequence (Q9NR97 27-1041): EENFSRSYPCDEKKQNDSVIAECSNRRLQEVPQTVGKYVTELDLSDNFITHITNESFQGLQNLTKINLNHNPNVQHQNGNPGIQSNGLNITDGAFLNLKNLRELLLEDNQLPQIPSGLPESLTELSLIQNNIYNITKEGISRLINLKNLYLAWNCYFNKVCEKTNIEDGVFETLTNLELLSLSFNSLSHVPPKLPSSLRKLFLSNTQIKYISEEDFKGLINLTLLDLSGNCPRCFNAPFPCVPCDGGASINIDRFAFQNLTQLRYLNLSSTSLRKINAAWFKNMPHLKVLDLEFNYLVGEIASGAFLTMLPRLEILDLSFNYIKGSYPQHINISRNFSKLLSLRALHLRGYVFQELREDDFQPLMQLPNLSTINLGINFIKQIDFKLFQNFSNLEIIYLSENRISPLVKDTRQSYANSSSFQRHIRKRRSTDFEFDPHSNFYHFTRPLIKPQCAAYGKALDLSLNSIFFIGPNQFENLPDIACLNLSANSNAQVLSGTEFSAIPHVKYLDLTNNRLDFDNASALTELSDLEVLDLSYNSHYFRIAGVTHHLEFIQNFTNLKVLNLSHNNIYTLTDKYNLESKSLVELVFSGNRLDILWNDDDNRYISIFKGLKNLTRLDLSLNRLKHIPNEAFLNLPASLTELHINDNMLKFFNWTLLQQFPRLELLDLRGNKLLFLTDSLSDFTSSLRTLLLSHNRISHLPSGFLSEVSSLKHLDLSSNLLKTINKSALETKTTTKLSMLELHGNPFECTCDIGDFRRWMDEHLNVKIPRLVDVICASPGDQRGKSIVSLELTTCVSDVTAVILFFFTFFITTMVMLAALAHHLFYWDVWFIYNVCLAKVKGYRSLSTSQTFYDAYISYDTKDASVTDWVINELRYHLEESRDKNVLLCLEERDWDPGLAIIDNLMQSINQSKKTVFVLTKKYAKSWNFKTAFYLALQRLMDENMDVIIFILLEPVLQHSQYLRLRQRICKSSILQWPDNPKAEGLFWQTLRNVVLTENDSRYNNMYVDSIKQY
Experiment: TLR8 inhibition reporter assay (HEK-Blue SEAP)
Settings: HEK-Blue cells overexpressing human TLR8, R848 15.9 μM, 22 hour incubation
reportedEndpoint: IC50 (nM)

- compound: "COc1cc(-c2cc3[nH]c(=O)n(C4CCC(N5CCSCC5)CC4)c3cc2C(C)C)cn2ncnc12 (centres unmarked) [Example 250]"
  valueUnits: "nM"
  IC50: 0.36
- compound: "CCC(CC)N1CCC[C@@H](n2c(=O)[nH]c3cc(-c4cc(OC)c5ncnn5c4)c(C)cc32)C1"
  valueUnits: "nM"
  IC50: 52
- compound: "Cc1cc2c(cc1-c1cc(C)c3ncnn3c1)[nH]c(=O)n2[C@H]1CC[C@H](NC(C)C)CC1"
  valueUnits: "nM"
  IC50: 11.1
- compound: "Cc1cc2c(cc1-c1cc(C)c3ncnn3c1)[nH]c(=O)n2[C@H]1CCCN(C(C)C)C1"
  valueUnits: "nM"
  IC50: 62.9
- compound: "COc1cc(-c2cc3[nH]c(=O)n(C4CCC(N5CCC(F)(F)C5)CC4)c3cc2C(C)C)cn2ncnc12 (single isomer, unassigned) [Example 294]"
  valueUnits: "nM"
  IC50: 3.14
- compound: "COc1cc(-c2cc3[nH]c(=O)n([C@@H]4CCCN(CC5CCCC5)C4)c3cc2C(C)C)cn2ncnc12"
  valueUnits: "nM"
  IC50: 0.05
- compound: "COc1cc(-c2cc3[nH]c(=O)n(C4CCN(C5CCC5)CC4)c3cc2C(C)C)cn2ncnc12"
  valueUnits: "nM"
  IC50: 4.77
- compound: "COc1cc(-c2cc3[nH]c(=O)n(C4CCN(CC5CC5)CC4)c3cc2C(C)C)cn2ncnc12"
  valueUnits: "nM"
  IC50: 6.04

1 = COc1cc(-c2cc3[nH]c(=O)n([C@@H]4CCCN(C5CCOC5)C4)c3cc2C(C)C)cn2ncnc12 (some centres unmarked) [Example 216]
2 = COc1cc(-c2cc3[nH]c(=O)n(C4CCC(N5CCC(OC)C5)CC4)c3cc2C(C)C)cn2ncnc12 (centres unmarked) [Example 285]
Could you determine which record has the numerically smaller IC50? Candidates: 1 and 2 Respond using the label that marks the chosen record. 2

a = COc1cc(-c2cc3[nH]c(=O)n(C4CCC(N5CCC(F)(F)CC5)CC4)c3cc2C(C)C)cn2ncnc12 (single isomer, unassigned) [Example 246]
b = Cc1c(-c2cc3[nH]c(=O)n([C@H]4CC[C@@H](N(C)C)CC4)c3cc2C(C)C)cn2ncnc2c1C
c = CCC(CC)CN1CCC(n2c(=O)[nH]c3cc(-c4cc(OC)c5ncnn5c4)c(C(C)C)cc32)CC1
d = COc1c(C)c(-c2cc3[nH]c(=O)n(C4CCC(N5CCCOCC5)CC4)c3cc2C(C)C)cn2ncnc12 (single isomer, unassigned) [Example 262]
Ascending by IC50, please. List the labels according to the requested ordering. a, b, d, c
(a: 0.16 nM, b: 0.36 nM, d: 0.68 nM, c: 7.03 nM)
